% 25 nM CA200645 binding values by entry
assay.target: human A3AR (Homo sapiens)
Construct: expressed in transfected cells
Sequence (P0DMS8 whole entry): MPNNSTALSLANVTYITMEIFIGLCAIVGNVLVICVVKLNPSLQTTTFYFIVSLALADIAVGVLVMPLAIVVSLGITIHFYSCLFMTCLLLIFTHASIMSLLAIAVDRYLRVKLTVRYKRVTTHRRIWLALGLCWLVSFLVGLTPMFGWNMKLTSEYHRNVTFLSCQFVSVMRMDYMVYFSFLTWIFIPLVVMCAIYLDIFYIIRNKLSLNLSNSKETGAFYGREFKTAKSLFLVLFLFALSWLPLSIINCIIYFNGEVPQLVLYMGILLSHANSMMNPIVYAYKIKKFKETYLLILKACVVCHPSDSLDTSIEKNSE
protocol.description: LOPAC library primary screen: single concentration (10 μM) inhibition of 25 nM CA200645 binding, PHERAstar FS
Use % as the unit, but write only the number.

Below: 4 compounds and their reported % 25 nM CA200645 binding.
CS(=O)(=O)Nc1ccc([N+](=O)[O-])cc1Oc1ccccc1 [Nimesulide] :: 114.0
C[C@](N)(CCP(=O)(O)O)C(=O)O.Cl [(S)-MAP4 hydrochloride] :: 89.0
O=C(OCCN1CCOCC1)C1(c2ccccc2)CCCCC1 [PRE-084] :: 100.3
Cc1nc(N=Nc2ccc(C(=O)O)cc2)c(COP(=O)(O)O)c(C=O)c1O [MRS 2159] :: 83.0

QUERY: Give reported % 25 nM CA200645 binding value for CC(N)(Cc1ccc(O)cc1)C(=O)O (racemic) [DL-alpha-Methyl-p-tyrosine]
RESULT: 102.4

Every entry's value here was drawn from paper PMC5733478.
